# Tested on: 786-0
# PROTOCOL TEXT: Growth inhibition of human 786-0 cells
# Format: functional
ENDPOINT: TGI

# COMPOUND STRING, ENDPOINT, OBSERVED MEASUREMENT
data = [
    ("CC(C)C[C@H](NC(=O)CCn1ccc2ccc(Br)cc2c1=O)B(O)O", "TGI", "> 100 µM"),
    ("CC(C)C[C@H](NC(=O)CCn1ccc2ncccc2c1=O)B(O)O", "TGI", "> 100 µM"),
    ("CC(C)C[C@H](NC(=O)Cn1ccc2ccc(Br)cc2c1=O)B(O)O", "TGI", "> 100 µM"),
    ("CC(C)C[C@H](NC(=O)CCn1ccc2ccccc2c1=O)B(O)O", "TGI", "> 100 µM"),
]
